Reported apparent K (half saturation) values for the following binders.
Target or test system: U-CTD (hnRNP U RBD) (human, UniProt Q00839 673-825)
Sequence (Q00839 673-825): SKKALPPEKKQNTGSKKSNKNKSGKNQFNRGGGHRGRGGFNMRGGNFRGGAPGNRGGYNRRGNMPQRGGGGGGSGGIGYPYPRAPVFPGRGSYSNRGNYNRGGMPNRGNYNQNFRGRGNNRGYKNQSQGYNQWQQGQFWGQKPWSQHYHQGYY
Experiment notes: fluorescence anisotropy

Please list apparent K (half saturation) recorded for the binder MTRNR2L6 sense 300 nt (ssRNA) RNA: GUGCUAAGACUAAACAAGUUUAAGCGAAUUACUAUACAUAUAUUGACCCAAUAAUUUGAUCAACGGAACAAGUUACCCUAGGGAUAACAGCGCAAUCCUAUUCUAGAGUCCAUAUUGACAAUAGGGUUUACGACCUCGAUGUUGGAUCAGGACAUCCUAAUGGUGUAGCUGCUAUCAAGGGUUCAUUUGUUCAAUGAUUAAAGUCCUACGUGGUCUGAGUUCAGACCGGAGCAAGCCAGGUCUGGUACAUGUGUAUUUAAGUCCUCCACACCUCCCAUCUAUAAGUCUUUUUAAAACAAA
110 nM

Quickly give me recorded apparent K (half saturation) for GUGCUAAGACUAAACAAGUUUAAGC (ssRNA) [MTRNR2L6 sense 25 nt]
4900 nM

Read off the recorded apparent K (half saturation) for MTRNR2L6 antisense 75 nt (ssRNA) RNA: GAACUUGUUCCGUUGAUCAAAUUAUUGGGUCAAUAUAUGUAUAGUAAUUCGCUUAAACUUGUUUAGUCUUAGCAC
410 nM

Query apparent K (half saturation) for MTRNR2L6 sense 100 nt (ssRNA) RNA: GUGCUAAGACUAAACAAGUUUAAGCGAAUUACUAUACAUAUAUUGACCCAAUAAUUUGAUCAACGGAACAAGUUACCCUAGGGAUAACAGCGCAAUCCUA
150 nM

Look up apparent K (half saturation) of MTRNR2L6 antisense 300 nt (ssRNA) RNA: GUUGUUUUAAAAAGACUUAUAGAUGGGAGGUGUGGAGGACUUAAAUACACAUGUACCAGACCUGGCUUGCUCCGGUCUGAACUCAGACCACGUAGGACUUUAAUCAUUGAACAAAUGAACCCUUGAUAGCAGCUACACCAUUAGGAUGUCCUGAUCCAACAUCGAGGUCGUAAACCCUAUUGUCAAUAUGGACUCUAGAAUAGGAUUGCGCUGUUAUCCCUAGGGUAACUUGUUCCGUUGAUCAAAUUAUUGGGUCAAUAUAUGUAUAGUAAUUCGCUUAAACUUGUUUAGUCUUAGCAC and report it.
110 nM

Kindly indicate its recorded apparent K (half saturation). Item: GUGCUAAGACUAAACAAGUUUAAGCGAAUUACUAUACAUAUAUUGACCCA (ssRNA) [MTRNR2L6 sense 50 nt]
1000 nM

Give the reported value of apparent K (half saturation) for this record: MTRNR2L6 antisense 200 nt (ssRNA) RNA: GAAUCAUUGAACAAAUGAACCCUUGAUAGCAGCUACACCAUUAGGAUGUCCUGAUCCAACAUCGAGGUCGUAAACCCUAUUGUCAAUAUGGACUCUAGAAUAGGAUUGCGCUGUUAUCCCUAGGGUAACUUGUUCCGUUGAUCAAAUUAUUGGGUCAAUAUAUGUAUAGUAAUUCGCUUAAACUUGUUUAGUCUUAGCAC
230 nM

State its apparent K (half saturation) for this binder: GGGGUCAAUAUAUGUAUAGUAAUUCGCUUAAACUUGUUUAGUCUUAGCAC (ssRNA) [MTRNR2L6 antisense 50 nt]
480 nM

# return recorded apparent K (half saturation) for input MTRNR2L6 sense 75 nt (ssRNA) RNA: GUGCUAAGACUAAACAAGUUUAAGCGAAUUACUAUACAUAUAUUGACCCAAUAAUUUGAUCAACGGAACAAGUUA
320 nM

Write down apparent K (half saturation) measured for item GCUUAAACUUGUUUAGUCUUAGCAC (ssRNA) [MTRNR2L6 antisense 25 nt]
6000 nM
